Recorded values, source the supplement of paper PMC9233669.

- Test system: biotinyl-Trp-oxazolone
- TEST: self-aminoacylation, catalytic enhancement (BWO) (fold over background); higher = more active; k-Seq, kA / k0A0; sequences stand for … in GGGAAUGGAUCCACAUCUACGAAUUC…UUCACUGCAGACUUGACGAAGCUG
Variants at the floor of the assay were thinned out.
Output yes for self-aminoacylation not less than 4; output no otherwise.

# check: self-aminoacylation of AUUGGCCUAGGUCAUCGGGUG [Fam2.2 aminoacylation ribozyme variant] is greater than or equal to 4
yes

# check: self-aminoacylation of AUUACCCUGCUCAUCGAGCGA [Fam2.1 aminoacylation ribozyme variant] is greater than or equal to 4
no

# check: self-aminoacylation of CUACUUCAAAGAAUCGGUUUG [Fam1A.1 aminoacylation ribozyme variant] is greater than or equal to 4
yes

# check: self-aminoacylation of AUUACCCUGGUCUUAGAGUGA [Fam2.1 aminoacylation ribozyme variant] is greater than or equal to 4
yes

# check: self-aminoacylation of AAGUUUGAUAUUAGUCGCAAG [Fam3.1 aminoacylation ribozyme variant] is greater than or equal to 4
no

# check: self-aminoacylation of AUUCACCUUGGUCAUCGAGUG [Fam2.2 aminoacylation ribozyme variant] is greater than or equal to 4
no

# check: self-aminoacylation of CUACCUCAAACAAUCGGUCUU [Fam1A.1 aminoacylation ribozyme variant] is greater than or equal to 4
no

# check: self-aminoacylation of AUUACGUUGGUCAUCGAGUGA [Fam2.1 aminoacylation ribozyme variant] is greater than or equal to 4
yes

# check: self-aminoacylation of AUUCAACUAGGUCCUCGGGUG [Fam2.2 aminoacylation ribozyme variant] is greater than or equal to 4
yes

---

Exercise: for every item that follows, state its recorded self-aminoacylation.
- Tested on: biotinyl-Phe-oxazolone
- TEST: self-aminoacylation, catalytic enhancement (BFO) (fold over background); higher = more active; k-Seq, kA / k0A0; sequences stand for … in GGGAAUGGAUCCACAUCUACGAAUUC…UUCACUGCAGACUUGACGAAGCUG
Fewer inactive variants are shown than the library holds.
The response must contain the number and no unit.

Fill in the blank: the reported self-aminoacylation of CUACUUCAAACAAUCUUUCUG [Fam1A.1 aminoacylation ribozyme variant] is ____.
5.42

Fill in the blank: the reported self-aminoacylation of AUUCACGUAGGUCAUCGGGUU [Fam2.2 aminoacylation ribozyme variant] is ____.
14.9

Fill in the blank: the reported self-aminoacylation of AUUGACCUAGGUCAUCGGUUG [Fam2.2 aminoacylation ribozyme variant] is ____.
3.99

Fill in the blank: the reported self-aminoacylation of CUACUUCAUACAAUCGUUCUG [Fam1A.1 aminoacylation ribozyme variant] is ____.
0.733

Fill in the blank: the reported self-aminoacylation of UUUCAACUAGGUCAUCGGGUG [Fam2.2 aminoacylation ribozyme variant] is ____.
35.7

Fill in the blank: the reported self-aminoacylation of CCAGAAUUCAAGCAAUCGGUC [Fam1B.1 aminoacylation ribozyme variant] is ____.
2.26

Fill in the blank: the reported self-aminoacylation of AUAACCCAGGUCAUCGAGUGA [Fam2.1 aminoacylation ribozyme variant] is ____.
19.3

Fill in the blank: the reported self-aminoacylation of UCUCACCUAGGUCAUCGGGUG [Fam2.2 aminoacylation ribozyme variant] is ____.
16.1

Fill in the blank: the reported self-aminoacylation of AUUACGCUGGUCAUCGAUUGA [Fam2.1 aminoacylation ribozyme variant] is ____.
0.858

Fill in the blank: the reported self-aminoacylation of AGUCACCUAGGUCAGCGGGUG [Fam2.2 aminoacylation ribozyme variant] is ____.
39.5

Fill in the blank: the reported self-aminoacylation of AAGUUUGAUAUUAGUCGCAAG [Fam3.1 aminoacylation ribozyme variant] is ____.
1.72

Fill in the blank: the reported self-aminoacylation of AAGUUUGCUAAUAGGCCCAAG [Fam3.1 aminoacylation ribozyme variant] is ____.
0.737

Fill in the blank: the reported self-aminoacylation of AAGUUUGCUAAUCGUCGCUAG [Fam3.1 aminoacylation ribozyme variant] is ____.
1.07

Fill in the blank: the reported self-aminoacylation of CCACACGUCAACCAAUCGGUC [Fam1B.1 aminoacylation ribozyme variant] is ____.
1.24

Fill in the blank: the reported self-aminoacylation of AUUACCCUGGUCAGCAAGUGA [Fam2.1 aminoacylation ribozyme variant] is ____.
9.67

Fill in the blank: the reported self-aminoacylation of GUACUUCAACCAAUCGGUCUG [Fam1A.1 aminoacylation ribozyme variant] is ____.
16.5

Fill in the blank: the reported self-aminoacylation of CGACUUCAAACAAUCGGUCGG [Fam1A.1 aminoacylation ribozyme variant] is ____.
9.34

Fill in the blank: the reported self-aminoacylation of AAGCUUGCUAAUAGUAGCAAG [Fam3.1 aminoacylation ribozyme variant] is ____.
2.27

---

- Tested on: biotinyl-Trp-oxazolone
- TEST: self-aminoacylation, catalytic enhancement (BWO) (fold over background); higher = more active; k-Seq, kA / k0A0; sequences stand for … in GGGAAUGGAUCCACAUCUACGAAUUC…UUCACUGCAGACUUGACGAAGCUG
This sample holds only a part of the variants without activity.
Exercise: for every item that follows, state its recorded self-aminoacylation.
The response must contain the number and no unit.

Given the entry UCACACUUCAAGCAAACGGUC [Fam1B.1 aminoacylation ribozyme variant] , what self-aminoacylation was observed with biotinyl-Trp-oxazolone?
0.586

Given the entry AUUACCCUGGGCACCGAGUGA [Fam2.1 aminoacylation ribozyme variant] , what self-aminoacylation was observed with biotinyl-Trp-oxazolone?
5.46

Given the entry UCACACUUCACGCAAUCGGUC [Fam1B.1 aminoacylation ribozyme variant] , what self-aminoacylation was observed with biotinyl-Trp-oxazolone?
0.908

Given the entry AUUCAGUUAGGUCAUCGGGUG [Fam2.2 aminoacylation ribozyme variant] , what self-aminoacylation was observed with biotinyl-Trp-oxazolone?
4.04

Given the entry AUUCCCCUAGGUCUUCGGGUG [Fam2.2 aminoacylation ribozyme variant] , what self-aminoacylation was observed with biotinyl-Trp-oxazolone?
21.8

---

Exercise: for every item that follows, state its recorded self-aminoacylation.
- System: biotinyl-Met-oxazolone
- TEST: self-aminoacylation, catalytic enhancement (BMO) (fold over background); higher = more active; k-Seq, kA / k0A0; sequences stand for … in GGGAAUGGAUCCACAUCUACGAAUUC…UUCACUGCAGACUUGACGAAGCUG
Fewer inactive variants are shown than the library holds.
The response must contain the number and no unit.

Fill in the blank: the reported self-aminoacylation of AUUACCCUGGUCAUCGAAUAA [Fam2.1 aminoacylation ribozyme variant] is ____.
0.987

Fill in the blank: the reported self-aminoacylation of AUUCCCCUAGGUCCUCGGGUG [Fam2.2 aminoacylation ribozyme variant] is ____.
26.9

Fill in the blank: the reported self-aminoacylation of AUUUCUCUGGUCAUCGAGUGA [Fam2.1 aminoacylation ribozyme variant] is ____.
5.74

Fill in the blank: the reported self-aminoacylation of AAGUUUCGUAAUAGUCGCAAG [Fam3.1 aminoacylation ribozyme variant] is ____.
1.27

Fill in the blank: the reported self-aminoacylation of AUUAACCUAGGUCAUUGGGUG [Fam2.2 aminoacylation ribozyme variant] is ____.
2.88

Fill in the blank: the reported self-aminoacylation of CCACACUACAAGCAACCGGUC [Fam1B.1 aminoacylation ribozyme variant] is ____.
0.649

Fill in the blank: the reported self-aminoacylation of AUUACACUCGUCAUCGAGUGA [Fam2.1 aminoacylation ribozyme variant] is ____.
3.51

Fill in the blank: the reported self-aminoacylation of AGUACCCUGGUCAUCGAUUGA [Fam2.1 aminoacylation ribozyme variant] is ____.
0.999

Fill in the blank: the reported self-aminoacylation of CCACAUUUCAAGCAAUCGGUG [Fam1B.1 aminoacylation ribozyme variant] is ____.
8.9

---

- Test system: biotinyl-Met-oxazolone
- TEST: self-aminoacylation, catalytic enhancement (BMO) (fold over background); higher = more active; k-Seq, kA / k0A0; sequences stand for … in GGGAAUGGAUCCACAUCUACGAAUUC…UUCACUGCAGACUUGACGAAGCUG
This sample holds only a part of the variants without activity.
Exercise: for every item that follows, state its recorded self-aminoacylation.

Fill in the blank: the reported self-aminoacylation of AUUAGCCUAGUCAUCGAGUGA [Fam2.1 aminoacylation ribozyme variant] is ____.
2.65

Fill in the blank: the reported self-aminoacylation of CUAAACUUCAAGCAAUCGGUC [Fam1B.1 aminoacylation ribozyme variant] is ____.
0.876

Fill in the blank: the reported self-aminoacylation of AAGUUUGGUAAUAGUCCCAAG [Fam3.1 aminoacylation ribozyme variant] is ____.
1.05

Fill in the blank: the reported self-aminoacylation of AUUAGUCUGGUCAUCGAGUGA [Fam2.1 aminoacylation ribozyme variant] is ____.
3.43

Fill in the blank: the reported self-aminoacylation of AGUACCCCGGUCAUCGAGUGA [Fam2.1 aminoacylation ribozyme variant] is ____.
5.52

Fill in the blank: the reported self-aminoacylation of AUUACCCUGCUCAUCGAGUCA [Fam2.1 aminoacylation ribozyme variant] is ____.
0.64

Fill in the blank: the reported self-aminoacylation of CUACUUCAAACAUUCGGUCUG [Fam1A.1 aminoacylation ribozyme variant] is ____.
0.904

Fill in the blank: the reported self-aminoacylation of CCACACUUCAAGCACUCGGUC [Fam1B.1 aminoacylation ribozyme variant] is ____.
0.777

Fill in the blank: the reported self-aminoacylation of CCACACAUCAAGCAAUCGUUC [Fam1B.1 aminoacylation ribozyme variant] is ____.
0.617
